From: patent EP0066351A1

Kindly supply the reported Emax at 0.01 mg values for the records listed here.
Test system: Rat hearts
Test: Cardiac activity: rat hearts perfused by the Langendorff procedure
Conditions: 10 μg added to perfusate; percentage of the maximum response due to salbutamol; perfused rat heart; read-out: Heart Rate
One number for each entry, in %.

Previously resolved entries follow.
COc1ccc(CC(C)NCC(O)c2cccc(C(F)(F)F)c2)cc1OC (stereo not shown) = 14
CC(Cc1ccc(OCc2ccccc2)cc1)NCC(O)c1cccc(C(F)(F)F)c1 (stereo not shown) = 0
COc1cc(CC(C)NCC(O)c2cccc(C(F)(F)F)c2)ccc1OCc1ccccc1 (stereo not shown) = 6

// next entry
Reported Emax at 0.01 mg of CC(Cc1ccc(OCc2ccccc2)c(Cl)c1)NCC(O)c1cccc(C(F)(F)F)c1 (stereo not shown) : 0

---

System: Rat hearts
Assay: Cardiac activity: rat hearts perfused by the Langendorff procedure
Settings: Rattus norvegicus, read-out: Heart Rate
Method: Rat hearts were perfused by the Langendorff procedure as follows: • Hearts were dissected free within 30 seconds of death and reverse perfused via the aorta and coronary vessels with Krebs-Ringer bicarbonate solution (pH 7.4, 37 °C) gassed with 95% oxygen:5% carbon dioxide at a flow rate between 8-12 cm^3/minute. Responses were observed after injection of drug dissolved in isotonic saline into the perfusion media. Results are expressed as a percentage of the maximum response due to salbutamol.
ASSAY_READOUT: Emax at 0.01 mg (%)
Answers are plain numbers, in %.

Previously resolved entries follow.
COc1ccc(CC(C)NCC(O)c2cccc(C(F)(F)F)c2)cc1 (centres unmarked) [Example 5] = 0
COc1ccc(C[C@@H](C)NC[C@H](O)c2cccc(C(F)(F)F)c2)cc1F (racemic) [Example 9] = 16

For every item below, please supply its Emax at 0.01 mg.
1. COc1ccc(CC(C)NCC(O)c2cccc(C(F)(F)F)c2)cc1F (centres unmarked) [Example 4]
2. CC(Cc1ccc(O)c(Cl)c1)NCC(O)c1cccc(C(F)(F)F)c1 (centres unmarked) [Example 8]
3. CC(Cc1ccc(O)cc1)NCC(O)c1cccc(C(F)(F)F)c1 (centres unmarked) [Example 2]

(A)
1: 0; 2: 23; 3: 73

---

Kindly supply the reported Reduction in area under Blood glucose curve (%) values for the records listed here.
System: Female CFLP mice
Assay: Hypoglycaemic activity: blood glucose after subcutaneous glucose load in fasted mice
Assay type: in vivo
Conditions: dose 12.5 μ moles/kg po, glucose 1 g/kg s.c. 30 minutes after dosing, area over 2 hours vs water controls
Numbers only, in %.

Previously resolved entries follow.
CC(Cc1ccc(O)cc1)NCC(O)c1cccc(C(F)(F)F)c1 (stereo not shown) = 59
COc1ccc(CC(C)NCC(O)c2cccc(C(F)(F)F)c2)cc1OC (stereo not shown) = 43
CC(Cc1ccc(OCc2ccccc2)cc1)NCC(O)c1cccc(C(F)(F)F)c1 (stereo not shown) = 36

// next entry
Reported Reduction in area under Blood glucose curve (%) of CC(Cc1ccc(OCc2ccccc2)c(Cl)c1)NCC(O)c1cccc(C(F)(F)F)c1 (stereo not shown) : 28
